Here the recorded interaction score is given for each entry.
Target: T1, 4H2109-AA
T1 chain: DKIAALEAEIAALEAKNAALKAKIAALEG
Test: two-hybrid library CCmax;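 also: natural log of median RNA to DNA barcode read ratio; higher means stronger binding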
Details: mean of both orientations
MEASURE_NAME: interaction score

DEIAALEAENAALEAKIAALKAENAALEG [4H171-AA]
-0.826
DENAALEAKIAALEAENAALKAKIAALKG [4H1310-AA]
0.409
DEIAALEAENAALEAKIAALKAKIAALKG [4H174-AA]
2.01
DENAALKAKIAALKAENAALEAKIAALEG [4H1877-AA]
1.92

The reported measurements were obtained from paper PMC10397247.
